subject-of-test: Tumor necrosis factor (Homo sapiens)
Sequence (P01375 whole entry, the tested form may be a part): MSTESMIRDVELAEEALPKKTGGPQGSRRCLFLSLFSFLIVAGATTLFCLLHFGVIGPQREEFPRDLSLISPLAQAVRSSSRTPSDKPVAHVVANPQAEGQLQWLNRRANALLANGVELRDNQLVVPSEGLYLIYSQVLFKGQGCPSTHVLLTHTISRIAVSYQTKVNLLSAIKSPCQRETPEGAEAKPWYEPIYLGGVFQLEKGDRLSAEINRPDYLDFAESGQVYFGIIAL
assay-remarks: Inhibition of recombinant human TNFalpha binding to TNF receptor 1-ECD at 100 uM by surface plasmon resonance-based in vitro competitive binding assay

>  <compound>
COc1ccc(C2Nc3ccccc3-c3nnc(SCc4ccccc4Cl)nc3O2)cc1C (centres undefined)

>  <inhibition>
32%

$$$$
>  <compound>
CCc1nnc(NC(=O)CSc2nnc(-c3ccc([N+](=O)[O-])cc3)n2-c2ccc(C)cc2)s1

>  <inhibition>
35%

$$$$
>  <compound>
CCOc1cc(C2NC(=O)NC(c3ccccc3)=C2C(C)=O)c(Br)c(Br)c1OCC(N)=O (centres undefined)

>  <inhibition>
16%

$$$$
>  <compound>
Cc1ccc(C(=O)C2=C(O)C(=O)N(c3cccc(C(F)(F)F)c3)C2c2ccccc2[N+](=O)[O-])cc1 (centres undefined)

>  <inhibition>
26%

$$$$
>  <compound>
O=S(=O)(Nc1ccc(O)c(Cl)c1)c1ccc(F)cc1

>  <inhibition>
31%

$$$$
>  <compound>
COC(=O)[C@@](NNc1ccc(C)c(C)c1)(NC(=O)c1ccc(Cl)cc1Cl)C(F)(F)F

>  <inhibition>
17%

$$$$
>  <compound>
Cc1cccc(/N=C2/NC(=O)/C(=C/c3cc(C)n(-c4cc(C(=O)O)cc(C(=O)O)c4)c3C)S2)c1C

>  <inhibition>
32%

$$$$
>  <compound>
O=C1Nc2ccc(S(=O)(=O)Nc3ccc(O)c(Cl)c3)c3cccc1c23

>  <inhibition>
28%

$$$$
>  <compound>
O=S(=O)(Nc1cc(Cl)c(O)c(Cl)c1)c1ccc2ccccc2c1

>  <inhibition>
37%

$$$$
